- assay_system: V599E Raf (Homo sapiens, UniProt P15056, V600E)
- Sequence (P15056 whole entry V600E): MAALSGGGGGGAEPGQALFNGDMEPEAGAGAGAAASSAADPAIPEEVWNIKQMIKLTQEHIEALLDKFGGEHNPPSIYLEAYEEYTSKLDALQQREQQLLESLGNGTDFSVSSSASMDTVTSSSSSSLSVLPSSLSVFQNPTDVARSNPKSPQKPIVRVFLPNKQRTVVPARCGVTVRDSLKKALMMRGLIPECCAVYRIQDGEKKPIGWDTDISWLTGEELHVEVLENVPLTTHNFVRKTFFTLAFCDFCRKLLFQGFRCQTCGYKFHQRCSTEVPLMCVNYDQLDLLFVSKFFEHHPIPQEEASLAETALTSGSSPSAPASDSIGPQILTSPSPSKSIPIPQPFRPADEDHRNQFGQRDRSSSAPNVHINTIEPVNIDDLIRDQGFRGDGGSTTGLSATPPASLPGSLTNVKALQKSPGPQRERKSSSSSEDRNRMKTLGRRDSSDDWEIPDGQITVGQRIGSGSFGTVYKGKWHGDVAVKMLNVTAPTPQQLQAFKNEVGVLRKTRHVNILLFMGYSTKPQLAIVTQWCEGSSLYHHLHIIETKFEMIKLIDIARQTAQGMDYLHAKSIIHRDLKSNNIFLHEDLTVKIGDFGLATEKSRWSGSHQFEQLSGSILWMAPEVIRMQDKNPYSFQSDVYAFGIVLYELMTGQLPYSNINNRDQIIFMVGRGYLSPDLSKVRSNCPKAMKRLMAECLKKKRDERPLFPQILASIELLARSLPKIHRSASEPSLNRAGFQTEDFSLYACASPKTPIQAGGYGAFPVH
- run_description: Biochemical FRET assay, mutant Raf (phosphorylation of MEK)
- condition_description: 0.125 nM V599E Raf, 100 nM biotin-MEK, 25 μM ATP, read-out: Raf (mut) inhibition
pIC50: −log10 of the molar value.
measured_quantity: pIC50

compound | result
Cc1ncoc1C(=O)N[C@H](C)c1ncc(C(=O)Nc2cc(C(F)(F)F)c(Cl)cn2)s1 | ≥ 7.00

Consider the compound shown here: Cc1nc(C(C)NC(=O)c2cc3c(cn2)ncn3C)c(C)nc1Nc1ccc(C(F)(F)F)cc1 (stereo not shown) What is its recorded pIC50? 6.00 to 7.00

Consider the compound shown here: C[C@@H](NC(=O)c1cnn(C)c1CN1CCCCC1)c1ncc(C(=O)Nc2cc(C(F)(F)F)c(Cl)cn2)s1 What is its recorded pIC50? 6.00 to 7.00

Consider the compound shown here: COCCOc1cc(C(F)(F)F)ccc1Nc1ncc(C(C)NC(=O)c2cc3c(cn2)ncn3C)s1 (stereo not shown) What is its recorded pIC50? ≥ 7.00
